Recorded TGI, one value per entry.
test system: MALME-3M melanoma; experiment: NCI tumour cell line growth inhibition, 48 h
Where a SMILES comes first, the peptide text is derived from it. The star is where a group is joined. Boc = CC(C)(C)OC(=O)*; OSu = O=C1CCC(=O)N1O*
REPORTED_PROPERTY: TGI

molecule=N/C(=N\S(=O)(=O)c1ccc(S(=O)(=O)c2ccccc2)s1)Nc1ccc(Cl)cc1 measured_value="47.9 µM"
molecule=C=C(c1ccc2nc(NC(=O)OC)[nH]c2c1)c1cccs1 measured_value="> 100 µM"
molecule="CCCN1C(=O)CC(C)N(Cc2ccccc2Cl)C1=S (centres undefined)" measured_value="56.7 µM"
molecule=Fc1ccc2[nH]cc(-c3nonc3-c3c[nH]c4ccc(Br)cc34)c2c1 measured_value="7.85 µM"
molecule="O=C(CP(=O)(O)O)NC(CC(=O)OCc1ccccc1)C(=O)OCc1ccccc1 (centres undefined)" measured_value="> 100 µM"
molecule=COc1cc(C#Cc2ccc(=O)oc2C#Cc2ccccc2)cc(OC)c1OC measured_value="7.21 µM"
molecule=CC(=O)N=C1N(/C=C2\C(=O)Oc3ccccc3C2=O)C(=O)/C(=C/c2ccc(OC(C)=O)cc2)N1C measured_value="> 100 µM"
molecule=C1CCC2(CC1)O[C@@H]1[C@@H](O2)[C@@H](O[C@H]2O[C@@H]3COC4(CCCCC4)O[C@H]3[C@@H]3OC4(CCCCC4)O[C@@H]23)O[C@@H]2COC3(CCCCC3)O[C@@H]12 measured_value="> 100 µM"
molecule="O=C1Nc2ccccc2C12CCNC2Cc1ccccc1 (centres undefined)" measured_value="> 100 µM"
molecule="CC(NC(=O)C(NC(=O)OC(C)(C)C)C(C)C)C(=O)NCC(=O)ON1C(=O)CCC1=O (stereo not drawn) (Boc-Val-Ala-Gly-OSu; configuration not given here)" measured_value="> 100 µM"
molecule=O=C(Nc1cccc(-n2ccc3c(NC(=O)c4ccccc4)nccc32)c1)Nc1cc(C(F)(F)F)cc(C(F)(F)F)c1 measured_value="35.8 µM"
molecule=Cc1nc(Nc2ccc(Cl)cc2)sc1C(=O)NNc1ccc([N+](=O)[O-])cc1[N+](=O)[O-] measured_value="36.2 µM"
molecule=CN(C)CC(C)(C)/C(=N\Nc1ccccc1)c1ccccc1 measured_value="> 100 µM"
molecule=O=C1c2ccccc2C(Br)(Br)c2ccccc21 measured_value="> 31.6 µM"
molecule=COc1cccc(-c2cc(=O)c3cc(OC)ccc3[nH]2)c1 measured_value="> 100 µM"
molecule=N#CCc1n[nH]c(Cc2ccccc2)n1 measured_value="> 100 µM"
molecule="CCCCC(=O)NS(=NC(=O)c1ccccc1)C(Cl)(Cl)Cl (centres undefined)" measured_value="> 100 µM"
molecule=COC(=O)CCC(=O)NC1=C(Nc2ccc(OC)cc2)C(=O)c2ccccc2C1=O measured_value="4.69 µM"
molecule="O=[N+]([O-])C1CC/C(=N/O)c2nonc21 (centres undefined)" measured_value="> 10 µM"
molecule="NC(CCCC(N)P(=O)(O)c1ccccc1)P(=O)(O)c1ccccc1 (centres undefined)" measured_value="> 261 µM"
molecule="Clc1ccc(SC(/C=C/NNC2=NC(c3ccccc3)C(c3ccccc3)=NN2)c2ccccc2)cc1 (centres undefined)" measured_value="39.8 µM"
molecule=C=C1C(=O)O[C@@H]2C[C@@H](C)[C@@H]3C=CC(=O)[C@@]3(C)[C@@H](OC(=O)CC(=O)O[C@H]3[C@@H]4C(=C)C(=O)O[C@@H]4C[C@@H](C)[C@@H]4C=CC(=O)[C@]43C)[C@H]12 measured_value="0.0368 µM"
molecule=O=C(/C=C/c1ccc(O)cc1)c1ccc2c(c1)OCO2 measured_value="> 100 µM"
molecule=COC(=O)c1c2c(c[n+]([O-])c1C)C(=O)C=CC2=O measured_value="2.51 µM"
molecule=C[N-]c1nnnn1C.[Au+].c1ccc([PH+](c2ccccc2)c2ccccc2)cc1 measured_value="2.91 µM"
molecule=COc1cc(NC(N)=NCCC(C)(C)Oc2ccc(C(F)(F)F)cc2)ncc1C#N measured_value="3.44 µM"
molecule=C[C@]12CCC(=O)C=C1CC[C@@H]1[C@@H]2[C@@H](O)C[C@@]2(C)[C@H]1CC[C@]2(O)C(=O)COC(=O)COCC(=O)O measured_value="> 100 µM"
molecule=COc1ccc2c(CCN)c(C(=O)O)[nH]c2c1 measured_value="> 100 µM"
molecule="CC(=O)OCC1OC(n2c(-c3ccc(Cl)cc3)ccc(C#N)c2=S)C(OC(C)=O)C(OC(C)=O)C1OC(C)=O (centres undefined)" measured_value="> 100 µM"
molecule="COC(=O)C1C/C(=C/N(C)C)C(=S)N1 (centres undefined)" measured_value="> 100 µM"
molecule="COC(=O)C1=C(C(=O)OC)C(C(=O)c2ccc(Br)cc2)N2N=C(c3ccc(Cl)cc3)C=CC12 (centres undefined)" measured_value="> 100 µM"
molecule=C#Cc1cccc(N2C(=O)CCC2=O)c1 measured_value="28.2 µM"
molecule=CCN(Cc1cccc(F)c1)c1ccc(CO)c(Cl)c1 measured_value="50.1 µM"
molecule=Cn1c(=O)c(C(=O)Nc2nc(C34CC5CC(CC(C5)C3)C4)cs2)c(O)c2ccccc21 measured_value="> 100 µM"
molecule=O=C(c1ccc(Cl)cc1)c1ccc(OCCCOc2ccc(C(=O)c3ccc(Cl)cc3)cc2)cc1 measured_value="> 100 µM"
molecule="CCN(CC)CC1CCCCN1CC(=O)N1c2ccccc2NC(=O)CC1C (centres undefined)" measured_value="> 100 µM"
molecule="C=C1C(O)C2C(=C(CCc3ccccc3)C13CC3)C(=O)C(C)(CO)C2O (centres undefined)" measured_value="> 100 µM"
molecule="CN1CCCC2(CCCc3ccccc32)C1 (centres undefined)" measured_value="> 100 µM"
molecule="Cc1ccc(S(=O)(=O)N/N=C(\\c2nc3ccc(Cl)cc3[nH]c2=O)C(O)c2cccc([N+](=O)[O-])c2)cc1 (centres undefined)" measured_value="> 100 µM"

Attribution: PubChem BioAssay (NCI)
